- tested on: Glycogen synthase kinase-3 alpha (Homo sapiens) (UniProt P49840)
- Sequence (P49840 whole entry, looked up): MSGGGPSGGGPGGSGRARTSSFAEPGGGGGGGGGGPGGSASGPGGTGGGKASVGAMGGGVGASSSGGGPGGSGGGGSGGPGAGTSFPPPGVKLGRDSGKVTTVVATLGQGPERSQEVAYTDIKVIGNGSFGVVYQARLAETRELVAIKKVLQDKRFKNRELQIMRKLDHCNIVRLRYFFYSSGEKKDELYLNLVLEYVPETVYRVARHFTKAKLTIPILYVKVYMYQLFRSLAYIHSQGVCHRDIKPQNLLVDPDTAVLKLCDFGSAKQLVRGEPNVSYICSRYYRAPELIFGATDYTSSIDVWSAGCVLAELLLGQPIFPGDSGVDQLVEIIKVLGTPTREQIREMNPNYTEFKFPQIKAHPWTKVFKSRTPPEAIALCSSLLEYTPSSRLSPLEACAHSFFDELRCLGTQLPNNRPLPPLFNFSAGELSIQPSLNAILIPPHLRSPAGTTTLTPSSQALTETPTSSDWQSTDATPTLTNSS
- assay procedure: blockers of GSK3A enzyme activity – biochemical, luminescence, cell-free homogeneous, HTS, primary screen (AID 2650);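 further: GST-tagged GSK-3 alpha with peptide substrate and 25 µM ATP; 0% = DMSO neutral wells and 100% = GW8510 positive control wells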
- measurement setup: GSK-3 alpha kinase, ADP-Glo luminescence, 60 min; at 10 µM
Among all 320,000 compounds or so, about 320 (0.1%) were called active.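 How the source made its calls: active means more than half of replicates show inhibition above 20%; inconclusive means some but at most half of replicates above 20% inhibition; inactive means no replicate shows inhibition above 20%.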 This excerpt belongs to a sample that is enriched for actives.
Possible outcomes: active, inactive

1) Oc1ccc(-c2nncn2-c2ccccc2)cc1 = active
2) CC1=C(C(=O)OC2CCCCC2)C(c2ccccc2F)NC(=O)N1 (configuration not stated) = inactive
3) O=C1CN(C(=O)COC(=O)/C=C/c2ccc(F)cc2)c2ccccc2N1 = inactive
4) CCOC(=O)CN(C(=O)COc1nc(-c2ccccc2)cc(C)c1C#N)c1ccc(F)cc1 = inactive
5) CSc1nccc(NC(=O)c2ccc(C(C)(C)C)cc2)n1 = inactive
6) Cc1ccc(NS(=O)(=O)c2cn(C)c(=O)n(C)c2=O)c(C)c1 = inactive
7) COc1ccc(NC(=O)CN2C(=O)COc3ccc(S(=O)(=O)N4CCOCC4)cc32)c(OC)c1 = inactive
8) Cc1ccc(NC(=O)C2CCC(C(C)(C)C)CC2)cc1S(=O)(=O)N1CCOCC1 (configuration not stated) = inactive
9) c1ccc2c(NCC3CCCO3)nc(-c3ccncc3)nc2c1 (configuration not stated) = inactive
10) CC1CCc2c(nc3ncnn3c2Nc2ccc(OC(F)(F)F)cc2)C1 (configuration not stated) = inactive
11) O=C(CN1CCN(c2ccc(O)cc2)CC1)NC1CCCc2ccccc21 (configuration not stated) = inactive
12) CCN1CCN(c2c(Cl)cccc2NC(=O)c2ccc(Br)o2)CC1 = active
13) CC(=O)c1cnc(SCC(=O)O)nc1C = inactive
14) N#Cc1c(N2CCCCC2)nc(N)c2c(N)nc(SCC(=O)O)cc12 = active
15) COCCCn1c(Cc2csc(Nc3cccc(Cl)c3)n2)nnc1SCC(=O)OC1CCCCC1 = inactive
16) Cc1cccn2c(=O)nc(SCC(=O)NCc3ccccc3Cl)nc12 = inactive
17) CCN(CC)CCCNC(=O)CCn1nc(-c2ccc(Cl)cc2)ccc1=O = inactive
18) CC(=O)N1CC(=O)N(CC(=O)Nc2ccc(Br)cc2)C1=S = inactive
19) CC(C)(C)c1nc(NCC2CCCO2)c2nnn(Cc3ccccc3)c2n1 (configuration not stated) = inactive
20) CCCCN(CCCC)CCC(O)c1cc2c(Cl)cc(Cl)cc2c2cc(C(F)(F)F)ccc12 (configuration not stated) = inactive
21) CC(C)(C)c1cc(CN2CCN(CCC#N)CC2)cc(C(C)(C)C)c1O = inactive
22) Cc1c(C(=O)Nc2cccc(S(=O)(=O)N3CCOCC3)c2)oc2ccccc12 = inactive
23) O=C(OCC1O[C@@H](OC(=O)c2cc(O)c(O)c(O)c2)[C@@H](OC(=O)c2cc(O)c(O)c(O)c2)[C@@H](OC(=O)c2cc(O)c(O)c(O)c2)[C@@H]1OC(=O)c1cc(O)c(O)c(O)c1)c1cc(O)c(O)c(O)c1 (some centres not stated) = active
24) c1ccc(-n2nc3ccccc3n2)cc1 = inactive
25) Cc1cc(C)c(S(=O)(=O)n2cc(C(C)C(N)C(=O)O)c3ccccc32)c(C)c1 (configuration not stated) = inactive
26) CCOc1ccc(S(=O)(=O)NCCC(=O)NCC(C)(C)N2CCOCC2)cc1 = inactive
27) Oc1ccc(-c2nnc(Nc3ccccc3)c3ccccc23)cc1 = inactive
28) CCn1c(SC(C)C(=O)Nc2ccc(N3CCOCC3)cc2)nnc1-c1ccco1 (configuration not stated) = inactive
29) O=C(NCCCN1CCCC1=O)C(=O)NCC1OCCN1S(=O)(=O)c1ccc(Br)cc1 (configuration not stated) = inactive
30) Cc1noc(C)c1NC(=O)Nc1cccc2c1O[C@H](CN(C)C(=O)Nc1ccccc1)[C@@H](C)CN([C@H](C)CO)C2=O = inactive
31) Cc1cccc(C)c1NC(=O)CS(=O)CC(=O)N1CCN(c2ccccc2)CC1 (configuration not stated) = inactive
32) CN(C)C(=O)CCC(=O)N1CCCCC1C(=O)Nc1ccc(Oc2ccccc2F)cc1 (configuration not stated) = inactive
33) CCn1cc(S(=O)(=O)c2cccc(C)c2)c(=O)c2cc(F)c(N3CCN(C)CC3)cc21 = inactive
34) OCCC1CN(Cc2ccccc2-c2ccco2)CCN1Cc1ccsc1 (configuration not stated) = inactive
35) O=[N+]([O-])c1ccc(NCCCN2CCOCC2)c(Cl)c1 = inactive
36) CCN(CC)CCOC(=O)c1ccc(NC(=O)CNC(=O)c2ccccc2)cc1 = inactive
37) CC1CN(c2nc(Nc3ccccc3)nc(N)c2[N+](=O)[O-])CC(C)O1 (configuration not stated) = inactive
38) Cc1cc(C)cc(N(CCC#N)C(=O)CN2C(=O)NC3(CCCC3)C2=O)c1 = inactive
39) CC(C)c1nnc(NC(=O)COC(=O)/C=C/c2ccc([N+](=O)[O-])cc2)s1 = inactive
40) CC1CCCN(C(=O)CN2C(=O)c3ccccc3S2(=O)=O)C1 (configuration not stated) = inactive
41) Brc1ccccc1CN1CCC(Cc2ccccc2)CC1 = inactive
42) Nc1nc(NCCCN2CCOCC2)nc(Nc2ccccc2)c1[N+](=O)[O-] = active

###

Below: a set of entries, each annotated with reported inhibition.
- tested on: Glycogen synthase kinase-3 alpha (Homo sapiens)
- assay procedure: blockers of GSK3A enzyme activity – biochemical, luminescence, cell-free homogeneous, HTS, primary screen (AID 2650);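 further: GST-tagged GSK-3 alpha with peptide substrate and 25 µM ATP; 0% = DMSO neutral wells and 100% = GW8510 positive control wells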
- measurement setup: GSK-3 alpha kinase, ADP-Glo luminescence, 60 min; at 10 µM; hits give high values
Screen size: about 320,000 compounds; about 320 (0.1%) were called active. Many of the other results were omitted from the sample, so actives are more common in it than they were.
measured attribute: inhibition (%)

1. Cc1cccc2sc(N(CCCN(C)C)C(=O)CCS(=O)(=O)c3ccccc3)nc12 = 1.84
2. COc1cc2c(cc1OC)CC1(CCCCC1)N=C2 = 0.717
3. O=c1cc(C(F)(F)F)[nH]c(=O)n1C1CCCCC1 = -7.78
4. Cc1ccccc1-c1cc(C(=O)NCc2cccs2)n(CC2CC(c3cccnc3)=NO2)n1 (stereo not given) = 8.15
5. CC(=O)Nc1ccc(NC(=O)CC2CCCC2)cc1 = 0.623

###

- tested on: Glycogen synthase kinase-3 alpha (Homo sapiens) (UniProt P49840)
- assay procedure: blockers of GSK3A enzyme activity – biochemical, luminescence, cell-free homogeneous, HTS, primary screen (AID 2650);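 further: GST-tagged GSK-3 alpha with peptide substrate and 25 µM ATP; 0% = DMSO neutral wells and 100% = GW8510 positive control wells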
- measurement setup: GSK-3 alpha kinase, ADP-Glo luminescence, 60 min; at 10 µM; hits give high values
The whole screen tested about 320,000 compounds, of which about 320 (0.1%) were called active. This excerpt belongs to a sample that is enriched for actives.
Below: a set of entries, each annotated with reported inhibition.
measured attribute: inhibition

1) CC(C(=O)N1CCOCC1)N1c2cccc3cccc(c23)S1(=O)=O (stereo not drawn) = 3.12% (inactive)
2) Cc1ccc(N(Cc2ccccc2O)C(=O)c2ccccc2F)cc1 = 0.374% (inactive)
3) COc1ccc2nc3n(c(=O)c2c1)-c1ccc(Cl)cc1C(=O)NC3Cc1ccccc1 (stereo not drawn) = -2.35% (inactive)

###

- tested on: Glycogen synthase kinase-3 alpha (Homo sapiens) (UniProt P49840)
- assay procedure: blockers of GSK3A enzyme activity – biochemical, luminescence, cell-free homogeneous, HTS, primary screen (AID 2650);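 further: GST-tagged GSK-3 alpha with peptide substrate and 25 µM ATP; 0% = DMSO neutral wells and 100% = GW8510 positive control wells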
- measurement setup: GSK-3 alpha kinase, ADP-Glo luminescence, 60 min; at 10 µM; hits give high values
Screen size: about 320,000 compounds; about 320 (0.1%) were called active. What follows is part of a selection rich in actives, with near analogues and random picks from the rest.
Below: a set of entries, each annotated with reported inhibition.
measured attribute: inhibition (%)

1) Nc1nonc1-n1nnc(C(=O)N/N=C\c2ccncc2)c1CN1CCCCC1 = 107
2) O=C(O)C1CCCN(CCC=C(c2ccccc2)c2ccccc2)C1 (stereo not drawn) = -1.79
3) C=CCNc1nc(N)c([N+](=O)[O-])c(NC2CCCCC2)n1 = 0.434
4) CS(=O)(=O)N(CC(=O)NC1CCCC1)Cc1ccc(F)cc1 = 10.3
5) COc1cccc(CNC(=O)C2CCCN(c3ncnc4c3nc3n4CCCCC3)C2)c1 (stereo not drawn) = 0.554
6) CC1(C)Cc2nc3sc4c(SCC(=O)NC(c5ccccc5)c5ccccc5)ncnc4c3cc2CO1 = 19.1
7) COc1cc(/C=N\Nc2ccc([N+](=O)[O-])cn2)ccc1OCC(=O)O = 71.1
8) CCCCN(CC)CCNC(=O)c1[nH]c(C)c(C(C)=O)c1C = 1.47
9) Cc1ccc(-n2c(C)cc(/C=N/Nc3ccc([N+](=O)[O-])cn3)c2C)c(C)c1 = 0.104
10) O=C1/C(=C/c2ccc3c(c2)OCO3)Oc2cc(OCC(=O)N3CC(O)C[C@H]3C(=O)O)ccc21 (stereo partly drawn) = 58.3
11) COCCNc1nc(N)c([N+](=O)[O-])c(NCCO)n1 = 53.1
12) COc1ccc(N=Nc2c(-c3ccc(OC)cc3)[nH]oc2=O)cc1 = -3.99
13) COc1ccc(NC(=O)c2cc([N+](=O)[O-])ccc2NC(=O)CNC2CCCCC2C)c(OC)c1 (stereo not drawn) = -2.82
14) O=C(OCC(=O)N(CCc1ccccc1)Cc1ccccc1)c1ccccc1[N+](=O)[O-] = 0.711
15) CCCC1NC(=S)NC(C)=C1C(C)=O (stereo not drawn) = -1.05
16) CCCCOC(=O)Nc1sc2nc(C)cc(C)c2c1-n1cccc1 = 3.59
17) Cn1c(-c2ccc(F)cc2)cc2onc(-c3ccccc3Cl)c2c1=O = -1.73
18) CCOc1ccc(CN2CCN(Cc3ccc(C)o3)CC2CCO)cc1 (stereo not drawn) = -3.68
19) Nc1nc(SCC(=O)Nc2cc(C(F)(F)F)ccc2Cl)[nH]c(=O)c1NC(=O)c1ccco1 = 0.858
20) CC(C)n1cnc2c(NCc3ccccc3)cc(N[C@@H](CO)Cc3ccccc3)cc21 = -3.52
21) Nc1nonc1-n1nnc(C(=O)N/N=C/c2ccccc2O)c1CN1CCCC1 = 49.8
22) COCCNC(=S)N(CCc1c(C)[nH]c2ccc(C)cc12)Cc1cccnc1 = -0.86
23) COc1ccc(N(C)C(=O)CCS(=O)(=O)c2cccc3nsnc23)cc1 = -0.848
24) COCCNc1nc(N)c([N+](=O)[O-])c(N2CCCCCC2)n1 = 1.39
25) O=C(NCc1cccs1)c1ccc(CS(=O)Cc2ccccc2Cl)o1 (stereo not drawn) = 2.9
26) O=C1c2ccccc2C2=Nc3ccccc3SC(c3ccccc3F)C12 (stereo not drawn) = -0.696
27) O=C(NCc1nnc(SCC(=O)N2CCC(Cc3ccccc3)CC2)o1)c1ccco1 = -0.692
28) COc1ccc(Cn2c(C)c(C)c(C#N)c2NC(=O)Nc2ccc(F)cc2)cc1 = -1.46
29) Nn1c(SCC(=O)Nc2ccc3c(c2)CCC3)nnc1C1CC1 = -1.28
30) Brc1ccc(/C=N/N2CCN(C3c4ccccc4-c4ccccc43)CC2)s1 = -1
31) Cc1cc(C)nc(NS(=O)(=O)c2ccc(N3C(=O)C4CCCCC4C3=O)cc2)n1 (stereo not drawn) = 1.53
32) O=C(CCNS(=O)(=O)c1ccc(Br)s1)NCc1ccccc1Cl = 0.12
33) Cc1ccc(C)c(NC(=O)COC(=O)c2nn(C)c(=O)c3ccccc23)c1 = -0.308
